Data provenance: ChEMBL document CHEMBL4706560

experiment: AUC(0 to infinity) in Wistar rat at 5 mg/kg, iv measured up to 24 hrs by LC-MS/MS analysis; type: ADME, organism-based; set-up: route intravenous, dose 5 mg/kg, time <=24; conditions: in vivo
PROPERTY: AUC(0-inf) (µg·h/mL)
Please give a number only; it is taken to be in µg·h/mL.

What the record says about `COc1ccccc1S(=O)(=O)Nc1ccc2c(c1)C(=C(C)C)C(=O)N2` : AUC(0-inf) is 7.34

----------
biological target: Bromodomain-containing protein 2 (Homo sapiens, UniProt P25440); experiment: Inhibition of BRD2 BD1 (unknown origin) preincubated for 15 mins followed by peptide addition and measured after 60 mins by TR-FRET assay
Sequence (P25440 whole entry): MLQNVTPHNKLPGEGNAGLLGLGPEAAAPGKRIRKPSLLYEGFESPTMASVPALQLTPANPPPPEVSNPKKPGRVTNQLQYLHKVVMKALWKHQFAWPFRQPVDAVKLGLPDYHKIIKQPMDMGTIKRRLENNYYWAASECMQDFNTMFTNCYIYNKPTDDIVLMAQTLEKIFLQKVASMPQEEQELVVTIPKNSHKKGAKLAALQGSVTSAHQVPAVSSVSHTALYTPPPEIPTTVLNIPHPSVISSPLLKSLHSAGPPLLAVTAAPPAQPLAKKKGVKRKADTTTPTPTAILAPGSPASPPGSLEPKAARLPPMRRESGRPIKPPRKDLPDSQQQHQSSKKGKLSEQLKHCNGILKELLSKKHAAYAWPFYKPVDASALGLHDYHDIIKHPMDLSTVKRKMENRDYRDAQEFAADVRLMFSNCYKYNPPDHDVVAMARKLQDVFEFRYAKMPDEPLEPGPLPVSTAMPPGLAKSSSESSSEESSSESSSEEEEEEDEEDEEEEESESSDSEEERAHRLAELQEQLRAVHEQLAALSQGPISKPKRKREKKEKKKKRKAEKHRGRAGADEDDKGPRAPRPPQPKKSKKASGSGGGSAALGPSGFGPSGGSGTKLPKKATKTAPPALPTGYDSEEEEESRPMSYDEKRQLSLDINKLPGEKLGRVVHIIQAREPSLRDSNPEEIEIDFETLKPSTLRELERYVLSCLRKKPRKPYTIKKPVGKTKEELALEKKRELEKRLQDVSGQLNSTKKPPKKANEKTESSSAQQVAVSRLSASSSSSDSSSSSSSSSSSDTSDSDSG
PROPERTY: pIC50
Would you please state pIC50, meaning minus log10 of the concentration in mol/L, as a bare number?

// worked examples, pIC50 included
> print(dat)
                           smiles.structure  quantitative.result
1  CC(C)=C1C(=O)Nc2ccc(NS(=O)(=O)c3ccccc3Br)cc21                 7.40
2  COc1ccc(Br)cc1S(=O)(=O)Nc1ccc2c(c1)C(=C(C)C)C(=O)N2                 7.41

Then there is this compound:
For record `COc1ccccc1S(=O)(=O)Nc1ccc2c(c1)C(=C(C)C)C(=O)N2` the listed pIC50 is 7.62
